SYSTEM: Adenosine kinase (Homo sapiens)
Sequence (P55263 whole entry): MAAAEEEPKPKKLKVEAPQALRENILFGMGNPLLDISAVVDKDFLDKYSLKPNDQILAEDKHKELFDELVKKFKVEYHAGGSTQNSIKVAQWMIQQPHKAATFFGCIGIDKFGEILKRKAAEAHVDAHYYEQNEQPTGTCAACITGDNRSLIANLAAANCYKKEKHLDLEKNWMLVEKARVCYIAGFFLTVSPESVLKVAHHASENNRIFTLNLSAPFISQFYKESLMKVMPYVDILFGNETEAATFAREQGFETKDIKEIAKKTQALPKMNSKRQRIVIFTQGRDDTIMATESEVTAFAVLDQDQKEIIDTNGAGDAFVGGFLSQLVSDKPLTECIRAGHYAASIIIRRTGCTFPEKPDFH
PROTOCOL: Inhibitory activity against Human Recombinant Adenosine Kinase
REPORTED PROPERTY: IC50 (µM)

1: OC[C@H]1O[C@@H](n2cnc3c(N4CCc5ccccc54)ncnc32)[C@H](O)[C@@H]1O
2: OC[C@H]1O[C@@H](n2c(-c3ccco3)nc3c(N4CCc5ccccc54)ncnc32)[C@H](O)[C@@H]1O
3: OC[C@H]1O[C@@H](n2c(N3CCc4ccccc43)nc3c(N4CCc5ccccc54)ncnc32)[C@H](O)[C@@H]1O
4: OC[C@H]1O[C@@H](n2c(Nc3ccccc3)nc3c(Nc4ccccc4)ncnc32)[C@H](O)[C@@H]1O
Sort these molecules on IC50 so the largest reading comes first. Labels, ranked as asked. 2, 3, 1, 4
(2: 2.9 µM, 3: 2 µM, 1: 0.5 µM, 4: 0.09 µM)
